Examples of compounds with documented PARP activity, % of control myocardium follow.
# Test system: poly-(ADP-ribose)-polymerase
# assay: PARP activity in myocardium and brain at acute hypobaric hypoxia with hypercapnia
# Format: in vivo
# protocol conditions: 100 mg/kg intravenously 15 minutes prior to the experiment; myocardium

Solved cases (4 shown):
compound="O=C([O-])CCCO.[Li+] [Lithium oxybutyrate]" metric="PARP activity, % of control myocardium" measurement="200±33 % of control"
compound="CCc1nc(C)ccc1O.O=C(O)CCC(=O)O [3-oxy-3-methyl-6-oxypyridine succinate]" metric="PARP activity, % of control myocardium" measurement="208±29 % of control"
compound=OC[C@H]1O[C@@H](n2cnc3c(O)ncnc32)[C@H](O)[C@@H]1O metric="PARP activity, % of control myocardium" measurement="192±23 % of control"
compound=NC(=S)N=C(N)N metric="PARP activity, % of control myocardium" measurement="212±23 % of control"

Query compound follows.
Find PARP activity, % of control myocardium for O=C(O)CCC(=O)O on poly-(ADP-ribose)-polymerase and write it down.
225±22 % of control
